tested on: HCC-2998 colon; assay: NCI tumour cell line growth inhibition, 48 h
attribute.measured: TGI

Below, 4 compounds whose answers are already recorded.
COc1cc(-c2cnn(C)c2)ccc1Nc1ncc2ccnc(N[C@@H](C)C(C)(C)C)c2n1    > 100 µM
COc1ccc2c(c1)sc1nc(-c3ccccc3)c(-c3ccsc3)n12    93.1 µM
Cc1cc2nc3c(C(OC4OC(CO)C(O)C(O)C4O)C(O)CO)nn(-c4ccccc4)c3nc2cc1C (configuration not stated)    > 100 µM
O=c1oc2ccccc2c(O)c1/C=N\c1nc(-c2ccccc2)cs1    > 100 µM

Quote TGI with test system HCC-2998 colon for c1cnc2c(c1)-n1cccc1C1(CCSCC1)NN2 > 100 µM

----------
tested on: MCF7 breast; assay: NCI tumour cell line growth inhibition, 48 h
# key: entry, value: GI50

O=c1ccn(C2OC(CO)C(O)C2O)c(=O)[nH]1 (stereo not drawn)    > 1000 µM
CCOc1ccc(/C=C/C(=O)c2ccccc2)cc1    4.12 µM

Consider the record given below.
For the compound S=C(Nc1ccc(-c2nc3ccccc3[nH]2)cc1)NC1CCCCC1 , give its reported GI50. 19.7 µM

----------
test system: DU-145 prostate; test: NCI tumour cell line growth inhibition, 48 h
# key: entry, value: TGI

Below, 3 compounds whose answers are already recorded.
CSc1nncc(-c2cc3c(c(SC)n2)CCC3)n1    > 100 µM
COc1ccc(OC)c2cc(Cc3ccc(N(C)C)cc3)c(=O)c(Cc3ccc(N(C)C)cc3)cc12    > 100 µM
CN1C2CC(=O)CC1[C@@H]1OC(c3ccccc3)O[C@H]21 (some centres undefined)    > 100 µM

Quote TGI with test system DU-145 prostate for Cc1ccc(C(=O)c2oc3ccc4c(C)cc(=O)oc4c3c2C)cc1 > 100 µM

Quote TGI with test system DU-145 prostate for CC(=O)CC1CCC(=O)CCC(=O)OC(CC(C)=O)CCC(=O)CCC(=O)O1 (centres undefined) > 100 µM

Quote TGI with test system DU-145 prostate for CCN(CC)CCCNc1ccc2nnn3c4ccc(O)cc4c(=O)c1c23 24.1 µM

Quote TGI with test system DU-145 prostate for COc1cc2nc(-c3ccc(C(F)(F)F)cc3)cc(OCCCN3CCOCC3)c2cc1OC 24 µM

Quote TGI with test system DU-145 prostate for N#CCCN(CCCN(C(=O)Nc1ccccc1)c1ccccc1)C(=O)Nc1ccccc1 > 100 µM

Quote TGI with test system DU-145 prostate for N#CC1=CNc2sccc2S1(=O)=O > 100 µM

Quote TGI with test system DU-145 prostate for OCCN=C1Nc2ccc(Cl)cc2C(=S)N2CSC[C@@H]12 > 100 µM

Quote TGI with test system DU-145 prostate for O=C(O)c1ccc(Nc2nc3cc(C(F)(F)F)ccc3nc2C(=O)O)cc1 > 100 µM

Quote TGI with test system DU-145 prostate for COc1cc(OC)c(/C=C/c2ccc3ccccc3[n+]2C)c(OC)c1 15.3 µM

Quote TGI with test system DU-145 prostate for CSc1ncc2c(n1)-c1ccccc1OC2N1CCCC1 (centres undefined) > 100 µM

Quote TGI with test system DU-145 prostate for CN1CCN(Cc2ccc(NC(=O)c3cncc(C#Cc4cnc(N)c5ccc(F)cc45)c3)cc2C(F)(F)F)CC1 5.01 µM

----------
# key: entry, value: TGI
system: K-562 leukemia; assay: NCI tumour cell line growth inhibition, 48 h

Below, 4 molecules whose answers are already recorded.
CCCC(=O)c1c(NOC2OC(COC(C)=O)C(OC(C)=O)C(OC(C)=O)C2OC(C)=O)nc(OC)n(C)c1=O (stereo not given)    > 100 µM
O=c1ccn(C2OC(CO)C(O)C2O)c(=O)[nH]1 (stereo not given)    > 1000 µM
Clc1nc(Oc2ccccc2)nc(-c2cn(-c3ccccc3)c3ccccc23)n1    18.1 µM
CCCCCCC/C=C/[C@H]1O[C@]23C(=O)C[C@@]4(C[C@@H](OC5OC(CO)C(O)C(O)C5O)C[C@@H]4[C@H]2C=C1C)OC3=O (stereo not given in full)    18.5 µM

Consider the record given below.
For the molecule CC(=O)O/N=C/c1ncccc1CO , give its reported TGI. > 100 µM

----------
# key: entry, value: TGI
tested on: HOP-62 NSCLC; assay: NCI tumour cell line growth inhibition, 48 h

NC(=O)c1c[se]c(C2OC(CO)C(O)C2O)n1 (stereo not drawn)    > 100 µM
COc1ccc2c(c1)C(=O)CC(N)C2 (stereo not drawn)    > 100 µM

Consider the record given below.
For the molecule O=[As](O)(O)c1cc(N=Nc2ccc(-c3ccc(N=Nc4cc([As](=O)(O)O)c(O)cc4O)cc3)cc2)c(O)cc1O , give its reported TGI. > 100 µM

----------
tested on: SF-268 CNS; assay: NCI tumour cell line growth inhibition, 48 h
# key: entry, value: TGI

Below, 4 compounds whose answers are already recorded.
O=C(N=Nc1ccccc1Br)NNc1ccccc1Br    > 100 µM
CC(C)c1ccc(Cc2cnc(NC(=O)c3cc(Br)cs3)s2)cc1    > 100 µM
COc1cc2c(cc1OCc1ccccc1)N=C[C@@H]1C/C(=C/C(=O)NCCCN3C(=O)c4cccc5cccc(c45)C3=O)CN1C2=O    5.01 µM
COc1cc(OC2OC(C)C(O)C(O)C2O)cc2oc(-c3ccc(O)cc3)c(CC=C(C)C)c(=O)c12 (centres undefined)    32.5 µM

For the compound COc1ccc(NC2Oc3cc4c(cc3C(c3cc(OC)c(O)c(OC)c3)C2C)OCO4)cc1 (centres undefined) , give its reported TGI. > 100 µM

For the compound CCCCSc1n/c(=C\c2ccc(N(C)C)cc2)c2nnnn12 , give its reported TGI. > 100 µM

----------
test system: OVCAR-8 ovarian; test: NCI tumour cell line growth inhibition, 48 h
attribute.measured: TGI

Below, 2 molecules whose answers are already recorded.
CCCCNc1nc(NC(C)(C)C)nc(NC(C)(C)C)n1    > 100 µM
O=c1oc2ccccc2c(O)c1/C=N\c1nc(-c2ccccc2)cs1    > 100 µM

Consider the record given below.
For the molecule CN(C)c1ccc(/C=C2\Oc3cc(O)ccc3C2=O)cc1 , give its reported TGI. > 100 µM

----------
test system: A549 NSCLC; assay: NCI tumour cell line growth inhibition, 48 h
# key: entry, value: TGI

Below, 3 compounds whose answers are already recorded.
Cc1ccc(C(=O)c2oc3ccc4c(C)cc(=O)oc4c3c2C)cc1    > 100 µM
OCCN=C1Nc2ccc(Cl)cc2C(=S)N2CSC[C@@H]12    > 100 µM
CCOP(=O)(OCC)C(Nc1ccc(F)cc1)c1cccc([N+](=O)[O-])c1 (stereo unspecified)    > 100 µM

For the compound COP1(=O)CC2C(Cl)(Cl)C2(C)C1 (stereo unspecified) , give its reported TGI. > 100 µM

For the compound COc1ccc(-c2c(C3=NCCN3)nnn2-c2ccccc2)cc1 , give its reported TGI. > 100 µM

For the compound O=C(NCCNCCO)N/N=C/c1ccc(Cl)cc1 , give its reported TGI. > 100 µM

----------
# key: entry, value: TGI
system: SK-MEL-5 melanoma; assay: NCI tumour cell line growth inhibition, 48 h
Report as a plain number; the unit µM is understood.

Below, 3 compounds whose answers are already recorded.
CCN(CC)CCC1CC/C(=C\c2ccc(OC)cc2)C1=O (centres undefined)    44
CSC(=NC1=NC(C(F)(F)F)(C(F)(F)F)N=C(c2ccccc2)O1)SC    33.1
CCOc1ccc(/C=C/C(=O)c2ccccc2)cc1    31.2

For the compound Cc1ccc2c(c1)OC1Nc3ccccc3C1=C2O (centres undefined) , give its reported TGI. 34

For the compound Oc1ccc(N=Nc2ccc(Cl)cc2)cc1 , give its reported TGI. 24.1

----------
tested on: 786-0 renal; assay: NCI tumour cell line growth inhibition, 48 h
Where a SMILES comes first, the peptide text is derived from it. [ ]: non-standard residue; d: D form. The star is where a group is joined. Cbz = O=C(OCc1ccccc1)*; Boc = CC(C)(C)OC(=O)*; Aib = CC(C)(N)C(=O)O; OBn = c1ccc(CO*)cc1; OtBu = CC(C)(C)O*; βAla = NCCC(=O)O
# key: entry, value: TGI

Below, 6 compounds whose answers are already recorded.
COC(=O)C1(C(=O)OC)N=C(C)OC1C(C)C (stereo unspecified)    > 100 µM
Cc1cc2nc3c(=O)n(C)c(=O)nc-3n(-c3ccc(Cl)cc3)c2cc1C    43.3 µM
CC(C)(C)OC(=O)CC(NC(=O)OC(C)(C)C)C(=O)NC(CCCCNC(=O)OCc1ccccc1)C(=O)NC(C)(C)C(=O)NCCC(=O)OCc1ccccc1 (stereo unspecified) (Boc-D(OtBu)K(Cbz)[Aib][βAla]-OBn; configuration not given here)    > 100 µM
OCCN=C1Nc2ccc(Cl)cc2C(=S)N2CSC[C@@H]12    > 100 µM
CC(=O)OCC1OC(n2c(-c3ccccc3)cc(-c3ccco3)c(C#N)c2=O)C(OC(C)=O)C(OC(C)=O)C1OC(C)=O (stereo unspecified)    > 100 µM
COC(OC)C(O)C1OC=CC1n1cnc2c(N)ncnc21 (stereo unspecified)    > 100 µM

Quote TGI with test system 786-0 renal for C=CCn1c(C)nc2cc(Nc3nc(Nc4ccc5nc(C)n(CC=C)c5c4)c4ccccc4n3)ccc21 1.08 µM

Quote TGI with test system 786-0 renal for CCOC(=O)[C@@H](C)C[C@H](Cc1ccccc1)NC(=O)c1csc([C@@H](C[C@H](C(C)C)N(C)C(=O)[C@@H](NC(=O)[C@H]2C[C@H](O[Si](C)(C)C(C)(C)C)CCN2C)C(C)C)OC(C)=O)n1 > 4.36 µM

Quote TGI with test system 786-0 renal for C=C1C[C@]23C[C@@]1(O)CC[C@H]2[C@@]12C=C[C@H](O)[C@@](C)(C(=O)O1)[C@H]2[C@@H]3C(=O)O > 100 µM

Quote TGI with test system 786-0 renal for O=C(NCCNCCO)N/N=C/c1ccc(Cl)cc1 > 100 µM

Quote TGI with test system 786-0 renal for COc1ccc(-c2c(C#N)c(-c3ccccc3)n(NS(=O)(=O)c3ccccc3)c(=O)c2C#N)cc1 > 100 µM

Quote TGI with test system 786-0 renal for COc1cc(/C=C2/SC(c3ccccc3)N(c3cccc([N+](=O)[O-])c3)C2=O)cc(OC)c1OC (stereo unspecified) > 100 µM

Quote TGI with test system 786-0 renal for COC(=O)CCC/C=C\C[C@H]1C=CC(=O)/C1=C/C[C@@H](O)CCc1cccc(C(F)(F)F)c1 5.57 µM

Quote TGI with test system 786-0 renal for CC1CC(c2ccccc2)=Nc2ccccc2S1(=O)=O (stereo unspecified) 30.9 µM

Quote TGI with test system 786-0 renal for COc1ccc(-c2c(C3=NCCN3)nnn2-c2ccccc2)cc1 > 100 µM

Quote TGI with test system 786-0 renal for O=C1C=CC(=O)c2ncccc21 7.61 µM

Quote TGI with test system 786-0 renal for CN(C(=O)c1ccc(Cl)s1)C(=S)N(C)C(=O)c1ccc(Cl)s1 > 10 µM

Quote TGI with test system 786-0 renal for CCOC(=O)C(Cc1ccccc1)(Cc1ccc(O)cn1)NC(=O)c1ccccc1 (stereo unspecified) 82.6 µM

Quote TGI with test system 786-0 renal for CC1(C)C2CC(c3ccncc3)ON2C(C)(C)N1O (stereo unspecified) > 100 µM
